test system: KRas wild type; experiment: Ras GTP binding domain inhibition assay (Cy3-GTP/Cy5-GTP competition); parameters: species or system human; conditions: 20 μM; without SOS (Table 7A)
RECORDED ENDPOINT: KRas wild type % inh.

>>> df
                                   compound              meas_value
0  CO[C@H]1CC[C@@H](Nc2nc(-c3nc(C)cn3C)nc3sc(-c4cccc5[nH]ncc45)c(C)c23)C1 [drawing 897]   B (26-50% inhibition)
1  CCOc1cccc(Nc2nc(-c3ccccn3)nc(O)c2OC)c1 [drawing 882]   C (51-75% inhibition)
2  CO[C@H]1CC[C@@H](Nc2nc(-c3nccn3C)nc3sc(-c4ccn(C(C)C)n4)c(C)c23)C1 [drawing 919]  D (76-100% inhibition)
3  CO[C@H]1CC[C@@H](Nc2nc(-c3nccn3C)nc3sc(-c4ccn(C)n4)c(C)c23)C1 [drawing 915]   C (51-75% inhibition)
4  Cc1c(-c2ccn(C)n2)sc2nc(-c3nccn3C)nc(NCCCC(=O)N(C)C)c12 [drawing 917]  D (76-100% inhibition)
5  COc1cccc(-c2sc3nc(-c4nccn4C)nc(N[C@H]4C[C@@H](OC)C4)c3c2-c2ccccc2)c1F [drawing 891]   C (51-75% inhibition)
6  COc1c(F)cccc1-c1sc2nc(-c3nccn3C)nc(NC3CCC(OC)C3)c2c1-c1ccccc1 (centres unmarked) [drawing 886]   B (26-50% inhibition)

Now examine the next entry.
Which value of KRas wild type % inh. has been reported for Cc1c(-c2ccn(C)n2)sc2nc(-c3nccn3C)nc(NCCOC(=O)N(C)C)c12 [drawing 918] in the records?
D (76-100% inhibition)
